These measurements were taken from ChEMBL document CHEMBL3352739.

assay: Growth inhibition of human OVCAR3 cells after 48 hrs by sulforhodamine B assay; format: functional; conditions: OVCAR-3, 48 h
Recorded GI50 for the following compounds

compound	GI50 / nM
COc1cc(C2C(C#N)=C(N)Oc3cc(O)ccc32)cc(OC)c1OC (centres undefined)	338
COc1cccc(C2C(C#N)=C(N)Oc3cc4c(cc32)OCO4)c1 (centres undefined)	25.6
COc1cccc(C2C(C#N)=C(N)Oc3cc(OC)ccc32)c1 (centres undefined)	27.8
COc1ccc2c(c1)OC(N)=C(C#N)C2c1cc(OC)c(OC)c(OC)c1 (racemic)	25.8

* * *

tested on: Paracentrotus lividus; assay: Antimitotic microtubule destabilizing activity in Paracentrotus lividus L embryos assessed as induction of cleavage arrest

molecule	EC, µM
COc1ccc2c(c1)OC(N)=C(C#N)C2c1cc(N)c2c(c1)OCCO2 (stereo unspecified)	0.5
COc1cc(C2C(C#N)=C(N)Oc3cc(O)ccc32)cc2c1OCCO2 (stereo unspecified)	4
COc1ccc2c(c1)OC(N)=C(C#N)C2c1cccc(OC)c1OC (stereo unspecified)	2
COc1cc(OC)cc(C2C(C#N)=C(N)Oc3cc(OC)ccc32)c1 (stereo unspecified)	0.005
COc1cccc(C2C(C#N)=C(N)Oc3cc(O)ccc32)c1 (stereo unspecified)	2
COc1ccc(C2C(C#N)=C(N)Oc3cc(OC)ccc32)c(OC)c1 (stereo unspecified)	1

* * *

test system: Paracentrotus lividus; experiment: Antimitotic microtubule destabilizing activity in Paracentrotus lividus L embryos assessed as induction of embryo spinning
Recorded EC, one value per entry.

compound	EC
COc1ccc2c(c1)OC(N)=C(C#N)C2c1cc(OC)c(OC)c(OC)c1 (racemic)	0.5 µM
COc1ccc2c(c1)OC(N)=C(C#N)[C@@H]2c1cc(OC)c(OC)c(OC)c1	0.2 µM
COc1ccc(C2C(C#N)=C(N)Oc3cc(O)ccc32)cc1OC (stereo not given)	> 4 µM
COc1cc(C2C(C#N)=C(N)Oc3cc(O)ccc32)cc(OC)c1OC (stereo not given)	> 4 µM
COc1ccc2c(c1)OC(N)=C(C#N)C2c1cccc(OC)c1OC (stereo not given)	4 µM
COc1ccc2c(c1)OC(N)=C(C#N)[C@H]2c1cc(OC)c(OC)c(OC)c1	> 5 µM
COc1cccc(C2C(C#N)=C(N)Oc3cc4c(cc32)OCO4)c1 (stereo not given)	0.2 µM
COc1cc(OC)cc(C2C(C#N)=C(N)Oc3cc(OC)ccc32)c1 (stereo not given)	0.02 µM
CCOc1ccccc1C1C(C#N)=C(N)Oc2cc(OC)ccc21 (stereo not given)	0.5 µM
COc1cccc([C@@H]2C(C#N)=C(N)Oc3cc(OC)ccc32)c1	4 µM

* * *

Listed here are compounds together with their documented GI50.
tested on: HOP-62; assay: Growth inhibition of human HOP62 cells after 48 hrs by sulforhodamine B assay; type: functional; conditions: HOP-62, 48 h
measured-property: GI50 (nM)

compound	measured-property	endpoint-result
COc1ccc2c(c1)OC(N)=C(C#N)C2c1cc(OC)c(OC)c(OC)c1 (racemic)	GI50	62.6
COc1cc(C2C(C#N)=C(N)Oc3cc(O)ccc32)cc(OC)c1OC (centres undefined)	GI50	796
COc1cccc(C2C(C#N)=C(N)Oc3cc4c(cc32)OCO4)c1 (centres undefined)	GI50	43.2
COc1cccc(C2C(C#N)=C(N)Oc3cc(OC)ccc32)c1 (centres undefined)	GI50	41.6

* * *

test system: Paracentrotus lividus; assay: Antimitotic microtubule destabilizing activity in Paracentrotus lividus L embryos assessed as induction of cleavage arrest
Consider the following compounds and their measured EC readings.

compound	system-name	unit-annotation	comparator	EC
COc1cccc([C@@H]2C(C#N)=C(N)Oc3cc(OC)ccc32)c1	Paracentrotus lividus	µM	=	0.5
COc1ccc2c(c1)OC(N)=C(C#N)C2c1cc(OC)c2c(c1)OCCO2 (configuration not stated)	Paracentrotus lividus	µM	=	0.02
COc1ccc(C2C(C#N)=C(N)Oc3cc(OC)ccc32)cc1 (configuration not stated)	Paracentrotus lividus	µM	=	1
N#CC1=C(N)Oc2cc(O)ccc2C1c1ccccc1 (configuration not stated)	Paracentrotus lividus	µM	=	2
COc1cc(C2C(C#N)=C(N)Oc3cc(O)ccc32)cc(OC)c1OC (configuration not stated)	Paracentrotus lividus	µM	>	4
N#CC1=C(N)Oc2cc(O)ccc2C1c1ccccc1I (configuration not stated)	Paracentrotus lividus	µM	>	4
COc1cccc([C@H]2C(C#N)=C(N)Oc3cc(OC)ccc32)c1	Paracentrotus lividus	µM	=	0.01
COc1cccc(C2C(C#N)=C(N)Oc3cc(O)ccc32)c1OC (configuration not stated)	Paracentrotus lividus	µM	>	4
COc1ccc2c(c1)OC(N)=C(C#N)C2c1cc2c(c([N+](=O)[O-])c1)OCCO2 (configuration not stated)	Paracentrotus lividus	µM	=	0.1
COc1ccc2c(c1)OC(N)=C(C#N)C2c1cc(OC)c(OC)c(OC)c1 (racemic)	Paracentrotus lividus	µM	=	0.05
COc1ccc(C2C(C#N)=C(N)Oc3cc(O)ccc32)c(OC)c1 (configuration not stated)	Paracentrotus lividus	µM	>	4
COc1cccc(C2C(C#N)=C(N)Oc3cc(OC)ccc32)c1 (configuration not stated)	Paracentrotus lividus	µM	=	0.01
CCOc1ccccc1C1C(C#N)=C(N)Oc2cc(OC)ccc21 (configuration not stated)	Paracentrotus lividus	µM	=	0.2
COc1ccc(C2C(C#N)=C(N)Oc3cc(O)ccc32)cc1OC (configuration not stated)	Paracentrotus lividus	µM	>	4
COc1cc(C2C(C#N)=C(N)Oc3cc(O)ccc32)c(OC)c(OC)c1OC (configuration not stated)	Paracentrotus lividus	µM	>	4
COc1ccc(C2C(C#N)=C(N)Oc3cc(O)ccc32)cc1 (configuration not stated)	Paracentrotus lividus	µM	>	4
COc1c(C2C(C#N)=C(N)Oc3cc(O)ccc32)cc2c(c1OC)OCO2 (configuration not stated)	Paracentrotus lividus	µM	>	4
COc1ccccc1C1C(C#N)=C(N)Oc2cc(O)ccc21 (configuration not stated)	Paracentrotus lividus	µM	>	4
COc1ccc2c(c1)OC(N)=C(C#N)[C@H]2c1cc(OC)c(OC)c(OC)c1	Paracentrotus lividus	µM	>	4
COc1cccc(C2C(C#N)=C(N)Oc3cc4c(cc32)OCO4)c1 (configuration not stated)	Paracentrotus lividus	µM	=	0.05
COc1ccc(OC)c(C2C(C#N)=C(N)Oc3cc(O)ccc32)c1 (configuration not stated)	Paracentrotus lividus	µM	>	4
COc1cc(C2C(C#N)=C(N)Oc3cc(O)ccc32)cc2c1OCO2 (configuration not stated)	Paracentrotus lividus	µM	=	4
N#CC1=C(N)Oc2cc(O)ccc2C1c1cc2c(c([N+](=O)[O-])c1)OCCO2 (configuration not stated)	Paracentrotus lividus	µM	>	4
COc1cc(OC)c(C2C(C#N)=C(N)Oc3cc(O)ccc32)c(OC)c1 (configuration not stated)	Paracentrotus lividus	µM	>	4
COc1ccc(C2C(C#N)=C(N)Oc3cc(O)ccc32)c(OC)c1OC (configuration not stated)	Paracentrotus lividus	µM	>	4
COc1cc([C@@H]2c3cc4c(cc3[C@H](O)[C@H]3COC(=O)[C@H]23)OCO4)cc(OC)c1OC	Paracentrotus lividus	µM	=	0.05
COc1ccc2c(c1)OC(N)=C(C#N)C2c1cc(OC)c2c(c1OC)OCO2 (configuration not stated)	Paracentrotus lividus	µM	=	1
COc1ccc2c(c1)OC(N)=C(C#N)C2c1cc(OC)c2c(c1)OCO2 (configuration not stated)	Paracentrotus lividus	µM	=	0.02
COc1ccc2c(c1)OC(N)=C(C#N)[C@@H]2c1cc(OC)c(OC)c(OC)c1	Paracentrotus lividus	µM	=	0.04
COc1cc(C2C(C#N)=C(N)Oc3cc4c(cc32)OCO4)cc2c1OCO2 (configuration not stated)	Paracentrotus lividus	µM	=	0.05
N#CC1=C(N)Oc2cc(O)ccc2C1c1ccccc1F (configuration not stated)	Paracentrotus lividus	µM	=	4
COc1ccc2c(c1)OC(N)=C(C#N)C2c1ccc(OC)c(OC)c1 (configuration not stated)	Paracentrotus lividus	µM	=	0.2

* * *

test system: HL-60(TB); assay: Growth inhibition of human HL-60(TB) cells after 48 hrs by sulforhodamine B assay; format: functional; conditions: HL-60, 48 h
// values below are reported GI50

compound	GI50, nM
COc1cc(C2C(C#N)=C(N)Oc3cc(O)ccc32)cc(OC)c1OC (centres undefined)	327
COc1ccc2c(c1)OC(N)=C(C#N)C2c1cc(OC)c(OC)c(OC)c1 (racemic)	25.6
COc1cccc(C2C(C#N)=C(N)Oc3cc(OC)ccc32)c1 (centres undefined)	25
COc1cccc(C2C(C#N)=C(N)Oc3cc4c(cc32)OCO4)c1 (centres undefined)	24.2

* * *

assay: Growth inhibition of human SF539 cells after 48 hrs by sulforhodamine B assay; assay type: functional; conditions: SF-539, 48 h
measured-property: GI50

compound	endpoint-result
COc1cccc(C2C(C#N)=C(N)Oc3cc4c(cc32)OCO4)c1 (centres undefined)	34.4 nM
COc1ccc2c(c1)OC(N)=C(C#N)C2c1cc(OC)c(OC)c(OC)c1 (racemic)	33.5 nM
COc1cccc(C2C(C#N)=C(N)Oc3cc(OC)ccc32)c1 (centres undefined)	25 nM
COc1cc(C2C(C#N)=C(N)Oc3cc(O)ccc32)cc(OC)c1OC (centres undefined)	347 nM
